Cited source: the supplement of paper PMC9112550

- Test system: Escherichia coli TOP10
- assay_comment: shrunken log2 fold change of peptide-encoding DNA abundance (4.5 h post-induction vs induction); higher = less antimicrobial activity (less host growth inhibition)
- assay_context: time post-induction: 4.5 h; library: site-saturation at positions 5, 18, 19, 20

>  <sequence_data>
RRIRMRPPRLPRPRPRPTIAPRP

>  <shrunken log2 fold change>
0.26

$$$$
>  <sequence_data>
RRIRFRPPRLPRPRPRPLSPPRP

>  <shrunken log2 fold change>
-0.476

$$$$
>  <sequence_data>
RRIRQRPPRLPRPRPRPDMIPRP

>  <shrunken log2 fold change>
-0.303

$$$$
>  <sequence_data>
RRIRTRPPRLPRPRPRPVQGPRP

>  <shrunken log2 fold change>
0.165

$$$$
>  <sequence_data>
RRIRWRPPRLPRPRPRPETRPRP

>  <shrunken log2 fold change>
1.32

$$$$
>  <sequence_data>
RRIRIRPPRLPRPRPRPQWGPRP

>  <shrunken log2 fold change>
-0.000367

$$$$
>  <sequence_data>
RRIRQRPPRLPRPRPRPRCFPRP

>  <shrunken log2 fold change>
-0.0694

$$$$
>  <sequence_data>
RRIRKRPPRLPRPRPRPCHFPRP

>  <shrunken log2 fold change>
-0.0404

$$$$
>  <sequence_data>
RRIRARPPRLPRPRPRPWNRPRP

>  <shrunken log2 fold change>
-0.0462

$$$$
>  <sequence_data>
RRIRERPPRLPRPRPRPQLRPRP

>  <shrunken log2 fold change>
-0.00323

$$$$
>  <sequence_data>
RRIRRRPPRLPRPRPRPPNTPRP

>  <shrunken log2 fold change>
0.884

$$$$
>  <sequence_data>
RRIRPRPPRLPRPRPRPEYHPRP

>  <shrunken log2 fold change>
-0.0649

$$$$
>  <sequence_data>
RRIRWRPPRLPRPRPRPQKMPRP

>  <shrunken log2 fold change>
-0.0924

$$$$
>  <sequence_data>
RRIRHRPPRLPRPRPRPPACPRP

>  <shrunken log2 fold change>
0.153

$$$$
>  <sequence_data>
RRIRERPPRLPRPRPRPCWSPRP

>  <shrunken log2 fold change>
0.0767

$$$$
>  <sequence_data>
RRIRLRPPRLPRPRPRPGPRPRP

>  <shrunken log2 fold change>
0.693

$$$$
>  <sequence_data>
RRIRDRPPRLPRPRPRPGNPPRP

>  <shrunken log2 fold change>
-5.31e-05

$$$$
>  <sequence_data>
RRIRIRPPRLPRPRPRPWNLPRP

>  <shrunken log2 fold change>
0.0133

$$$$
>  <sequence_data>
RRIRRRPPRLPRPRPRPHVWPRP

>  <shrunken log2 fold change>
0.242

$$$$
>  <sequence_data>
RRIRERPPRLPRPRPRPCRIPRP

>  <shrunken log2 fold change>
-0.0965

$$$$
>  <sequence_data>
RRIRERPPRLPRPRPRPWPSPRP

>  <shrunken log2 fold change>
0.134

$$$$
>  <sequence_data>
RRIRPRPPRLPRPRPRPSNLPRP

>  <shrunken log2 fold change>
-0.823

$$$$
>  <sequence_data>
RRIRDRPPRLPRPRPRPSEKPRP

>  <shrunken log2 fold change>
-0.0166

$$$$
>  <sequence_data>
RRIRFRPPRLPRPRPRPWIQPRP

>  <shrunken log2 fold change>
-0.997

$$$$
>  <sequence_data>
RRIRYRPPRLPRPRPRPFLSPRP

>  <shrunken log2 fold change>
-0.0547

$$$$
>  <sequence_data>
RRIRFRPPRLPRPRPRPLKIPRP

>  <shrunken log2 fold change>
-0.24

$$$$
>  <sequence_data>
RRIRVRPPRLPRPRPRPHPKPRP

>  <shrunken log2 fold change>
0.0188

$$$$
>  <sequence_data>
RRIRTRPPRLPRPRPRPSFEPRP

>  <shrunken log2 fold change>
-0.328

$$$$
>  <sequence_data>
RRIRYRPPRLPRPRPRPEGVPRP

>  <shrunken log2 fold change>
-0.0041

$$$$
>  <sequence_data>
RRIRKRPPRLPRPRPRPLGAPRP

>  <shrunken log2 fold change>
0.58

$$$$
>  <sequence_data>
RRIRIRPPRLPRPRPRPEMIPRP

>  <shrunken log2 fold change>
-0.0257

$$$$
>  <sequence_data>
RRIRQRPPRLPRPRPRPFGAPRP

>  <shrunken log2 fold change>
-0.0476

$$$$

###

- Tested on: Escherichia coli TOP10
- assay_comment: shrunken log2 fold change of peptide-encoding DNA abundance (4.5 h post-induction vs induction); higher = less antimicrobial activity (less host growth inhibition)
- assay_context: time post-induction: 4.5 h; library: site-saturation at positions 5, 18, 19, 20
assay_endpoint: shrunken log2 fold change

>  <sequence_data>
RRIRMRPPRLPRPRPRPAMKPRP

>  <recorded_measurement>
-0.00492

$$$$
>  <sequence_data>
RRIRWRPPRLPRPRPRPAFKPRP

>  <recorded_measurement>
-0.00397

$$$$
>  <sequence_data>
RRIRRRPPRLPRPRPRPHDDPRP

>  <recorded_measurement>
0.341

$$$$
>  <sequence_data>
RRIRNRPPRLPRPRPRPDFSPRP

>  <recorded_measurement>
-0.0911

$$$$
>  <sequence_data>
RRIRIRPPRLPRPRPRPNCQPRP

>  <recorded_measurement>
-0.367

$$$$
>  <sequence_data>
RRIRVRPPRLPRPRPRPSYWPRP

>  <recorded_measurement>
-0.341

$$$$
>  <sequence_data>
RRIRHRPPRLPRPRPRPMMGPRP

>  <recorded_measurement>
-0.01

$$$$
>  <sequence_data>
RRIRQRPPRLPRPRPRPPWMPRP

>  <recorded_measurement>
0.172

$$$$
>  <sequence_data>
RRIRRRPPRLPRPRPRPPSGPRP

>  <recorded_measurement>
0.682

$$$$
>  <sequence_data>
RRIRWRPPRLPRPRPRPVPTPRP

>  <recorded_measurement>
0.544

$$$$
>  <sequence_data>
RRIRQRPPRLPRPRPRPCNAPRP

>  <recorded_measurement>
0.0357

$$$$
>  <sequence_data>
RRIRTRPPRLPRPRPRPYCIPRP

>  <recorded_measurement>
-0.205

$$$$
>  <sequence_data>
RRIRMRPPRLPRPRPRPHLRPRP

>  <recorded_measurement>
0.0326

$$$$
>  <sequence_data>
RRIRRRPPRLPRPRPRPAHCPRP

>  <recorded_measurement>
0.804

$$$$
>  <sequence_data>
RRIRHRPPRLPRPRPRPLMRPRP

>  <recorded_measurement>
0.221

$$$$
>  <sequence_data>
RRIRIRPPRLPRPRPRPFCEPRP

>  <recorded_measurement>
-0.23

$$$$
>  <sequence_data>
RRIRMRPPRLPRPRPRPRETPRP

>  <recorded_measurement>
1.49

$$$$
>  <sequence_data>
RRIRRRPPRLPRPRPRPQSDPRP

>  <recorded_measurement>
0.244

$$$$
>  <sequence_data>
RRIRYRPPRLPRPRPRPMENPRP

>  <recorded_measurement>
-0.207

$$$$
>  <sequence_data>
RRIRHRPPRLPRPRPRPEETPRP

>  <recorded_measurement>
-0.00605

$$$$
>  <sequence_data>
RRIRMRPPRLPRPRPRPDLLPRP

>  <recorded_measurement>
2.73

$$$$
>  <sequence_data>
RRIRRRPPRLPRPRPRPCANPRP

>  <recorded_measurement>
-0.0911

$$$$
>  <sequence_data>
RRIRRRPPRLPRPRPRPTAVPRP

>  <recorded_measurement>
0.606

$$$$
>  <sequence_data>
RRIRSRPPRLPRPRPRPMIQPRP

>  <recorded_measurement>
0.0624

$$$$
>  <sequence_data>
RRIRMRPPRLPRPRPRPETFPRP

>  <recorded_measurement>
0.211

$$$$
>  <sequence_data>
RRIRYRPPRLPRPRPRPRPDPRP

>  <recorded_measurement>
-0.0672

$$$$
>  <sequence_data>
RRIRMRPPRLPRPRPRPAMAPRP

>  <recorded_measurement>
0.778

$$$$
>  <sequence_data>
RRIRFRPPRLPRPRPRPFALPRP

>  <recorded_measurement>
-0.00558

$$$$
>  <sequence_data>
RRIRCRPPRLPRPRPRPGSEPRP

>  <recorded_measurement>
0.286

$$$$
>  <sequence_data>
RRIRERPPRLPRPRPRPTNGPRP

>  <recorded_measurement>
-0.163

$$$$
>  <sequence_data>
RRIRYRPPRLPRPRPRPRQTPRP

>  <recorded_measurement>
-0.0574

$$$$
>  <sequence_data>
RRIRIRPPRLPRPRPRPFDFPRP

>  <recorded_measurement>
-0.181

$$$$

###

- System: Escherichia coli TOP10;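 note: peptides expressed intracellularly from a pBAD plasmid library in pooled LB shake-flask culture, induced with 0.3% L-arabinose, DNA abundance read by NGS, three biological replicates, DESeq2 with apeglm shrinkage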
- assay_comment: shrunken log2 fold change of peptide-encoding DNA abundance (4.5 h post-induction vs induction); higher = less antimicrobial activity (less host growth inhibition)
- assay_context: time post-induction: 4.5 h; library: site-saturation at positions 5, 18, 19, 20
# shrunken log2 fold change >= 0.09 gives TRUE, anything below gives FALSE

>  <sequence_data>
RRIRKRPPRLPRPRPRPADPPRP

>  <class_label>
FALSE

$$$$
>  <sequence_data>
RRIRWRPPRLPRPRPRPMKTPRP

>  <class_label>
FALSE

$$$$
>  <sequence_data>
RRIRFRPPRLPRPRPRPQSFPRP

>  <class_label>
FALSE

$$$$
>  <sequence_data>
RRIRTRPPRLPRPRPRPYAQPRP

>  <class_label>
FALSE

$$$$
>  <sequence_data>
RRIRSRPPRLPRPRPRPVGKPRP

>  <class_label>
FALSE

$$$$
>  <sequence_data>
RRIRDRPPRLPRPRPRPHDTPRP

>  <class_label>
FALSE

$$$$
>  <sequence_data>
RRIRSRPPRLPRPRPRPDENPRP

>  <class_label>
TRUE

$$$$
>  <sequence_data>
RRIRFRPPRLPRPRPRPTSVPRP

>  <class_label>
FALSE

$$$$
>  <sequence_data>
RRIRLRPPRLPRPRPRPNLCPRP

>  <class_label>
TRUE

$$$$
>  <sequence_data>
RRIRMRPPRLPRPRPRPECDPRP

>  <class_label>
TRUE

$$$$
>  <sequence_data>
RRIRCRPPRLPRPRPRPWQTPRP

>  <class_label>
FALSE

$$$$
>  <sequence_data>
RRIRVRPPRLPRPRPRPWLFPRP

>  <class_label>
TRUE

$$$$
>  <sequence_data>
RRIRHRPPRLPRPRPRPTPWPRP

>  <class_label>
TRUE

$$$$
>  <sequence_data>
RRIRRRPPRLPRPRPRPKSKPRP

>  <class_label>
TRUE

$$$$
